- assayed-target: CK1δ (Homo sapiens)
- Sequence (P48730 whole entry): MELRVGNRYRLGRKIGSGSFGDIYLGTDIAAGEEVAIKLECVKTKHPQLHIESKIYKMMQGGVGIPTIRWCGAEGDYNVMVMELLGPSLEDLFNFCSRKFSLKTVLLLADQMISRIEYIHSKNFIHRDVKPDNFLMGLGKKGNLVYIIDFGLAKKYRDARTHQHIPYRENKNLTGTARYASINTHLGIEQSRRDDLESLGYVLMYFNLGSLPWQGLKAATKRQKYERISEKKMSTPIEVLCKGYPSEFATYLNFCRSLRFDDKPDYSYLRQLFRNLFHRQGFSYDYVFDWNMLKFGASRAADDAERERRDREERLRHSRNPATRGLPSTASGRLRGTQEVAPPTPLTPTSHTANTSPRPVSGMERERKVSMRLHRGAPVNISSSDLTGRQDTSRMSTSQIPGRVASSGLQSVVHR
- assay-summary: CK1δ kinase assay (Caliper LabChip electrophoretic separation of fluoresceinated peptide substrate and product)
- Format: biochemical
- assay-context: 200 pM CK1δ, 50 μM ATP, 1.5 μM peptide, 22 hours at room temperature; read-out: CK1δ IC50 range
- Method: CK1ε and CK1δ Kinase Assays The kinase assay was performed in V-bottom 384-well plates. […] The reaction was incubated at room temperature for 22 hours and terminated by adding 45 μl of 35 mM EDTA to each sample. The reaction mixture was analyzed on the Caliper LABCHIP®3000 (Caliper, Hopkinton, Mass.) by electrophoretic separation of the unphosphorylated substrate and phosphorylated product. […] Compounds were dissolved at 10 mM in dimethylsulfoxide (DMSO) and evaluated at eleven concentrations. […]
pIC50: −log10 of the molar value.

>  <compound>
CC1(C)CC(NC(=O)N2CCn3nc(-c4ccc(Cl)c(Cl)c4)c(C(N)=O)c3C2)C1 [Compound 287]

>  <pIC50>
8.00 to 11.00

$$$$
>  <compound>
CC(C)(C)NC(=O)N1CCn2nc(-c3ccsc3)c(C(N)=O)c2C1 [Compound 121]

>  <pIC50>
7.00 to 8.00

$$$$
>  <compound>
CC(C)(CO)NC(=O)N1CCn2nc(-c3ccc(F)c(Cl)c3)c(C(N)=O)c2C1 [Compound A48]

>  <pIC50>
8.00 to 11.00

$$$$
>  <compound>
CC(C)(C)NC(=O)N1Cc2c(C(N)=O)c(-c3cccc(F)c3)nn2C(CF)C1 (single isomer, unassigned) [Compound A106]

>  <pIC50>
5.70 to 7.00

$$$$
>  <compound>
NC(=O)c1c(-c2cccc(F)c2)nn2c1CN(C(=O)NC1CC1)CC2 [Compound 7]

>  <pIC50>
7.00 to 8.00

$$$$
>  <compound>
NC(=O)c1c(-c2cccc(F)c2)nn2c1CN(C(=O)Nc1cccnn1)CC2 [Compound 91]

>  <pIC50>
7.00 to 8.00

$$$$
>  <compound>
NC(=O)c1c(-c2ccc(Cl)c(Cl)c2)nn2c1CN(C(=O)NC1(C(F)F)CCC1)CC2 [Compound 237]

>  <pIC50>
8.00 to 11.00

$$$$
>  <compound>
NC(=O)c1c(-c2ccc(Cl)c(Cl)c2)nn2c1CN(C(=O)NC1CC3(C1)CC3(F)F)CC2 (single isomer, unassigned) [Compound 325]

>  <pIC50>
8.00 to 11.00

$$$$
>  <compound>
CC(C)(C)NC(=O)N1CCn2nc(-c3cccc(OC(F)(F)F)c3)c(C(N)=O)c2C1 [Compound 138]

>  <pIC50>
5.70 to 7.00

$$$$
>  <compound>
CC1(C)C2CCC1(NC(=O)N1CCn3nc(-c4ccc(F)c(Cl)c4)c(C(N)=O)c3C1)CC2O (stereo not drawn) [Compound A66]

>  <pIC50>
8.00 to 11.00

$$$$
>  <compound>
CC1CC(NC(=O)N2CCn3nc(-c4cccc(Cl)c4)c(C(N)=O)c3C2)C1 (single isomer, unassigned) [Compound 251]

>  <pIC50>
8.00 to 11.00

$$$$
>  <compound>
CC(=O)N1CC2(C1)CN(C(=O)NC(C)(C)C)Cc1c(C(N)=O)c(-c3ccc(F)c(Cl)c3)nn12 [Compound A135]

>  <pIC50>
8.00 to 11.00

$$$$
>  <compound>
NC(=O)c1c(-c2ccc(F)c(Cl)c2)nn2c1CN(C(=O)NC1(c3ccc(F)cc3)CC(F)(F)C1)CC2 [Compound 308]

>  <pIC50>
8.00 to 11.00

$$$$
>  <compound>
CC(C)(C)NC(=O)N1CCn2nc(-c3ccc(F)nc3F)c(C(N)=O)c2C1 [Compound 125]

>  <pIC50>
5.70 to 7.00

$$$$
>  <compound>
NC(=O)c1c(-c2cccc(Cl)c2)nn2c1CN(C(=O)NC1CC(C(F)F)C1)CC2 (stereo not drawn) [Compound 257]

>  <pIC50>
8.00 to 11.00

$$$$
>  <compound>
CC(C)(C)NC(=O)N1Cc2c(C(N)=O)c(-c3ccc(F)c(Cl)c3)nn2C2(C1)CC(F)(F)C2 [Compound A39]

>  <pIC50>
8.00 to 11.00

$$$$
>  <compound>
COCCC1CN(C(=O)NC(C)(C)C)Cc2c(C(N)=O)c(-c3ccc(F)c(Cl)c3)nn21 (single isomer, unassigned) [Compound A100]

>  <pIC50>
7.00 to 8.00

$$$$
>  <compound>
N#Cc1ccc(C23CCC(NC(=O)N4CCn5nc(-c6cccc(Cl)c6)c(C(N)=O)c5C4)(CC2)CC3)cc1 [Compound A74]

>  <pIC50>
8.00 to 11.00

$$$$
>  <compound>
NC(=O)c1c(-c2ccc(F)c(Cl)c2)nn2c1CN(C(=O)NC13CCC(F)(CC1)C3)CC2 [Compound A137]

>  <pIC50>
8.00 to 11.00

$$$$
>  <compound>
CC1(NC(=O)N2Cc3c(C(N)=O)c(-c4ccc(F)c(Cl)c4)nn3C(CF)C2)CC(F)(F)C1 (stereo not drawn) [Compound A9]

>  <pIC50>
8.00 to 11.00

$$$$
>  <compound>
COC12CCC(NC(=O)N3CCn4nc(-c5ccc(F)c(Cl)c5)c(C(N)=O)c4C3)(CC1)C(=O)C2 [Compound A60]

>  <pIC50>
8.00 to 11.00

$$$$
